Attribution: patent US12398154B2

test system: pERK in MKN1 cells; assay: Inhibition of KRas phosphorylation of ERK (Cisbio HTRF pERK assay); settings: Homo sapiens, MKN-1, 3 h, read-out: Inhibition (HTRF IC50) of KRas-mediated Phosphorylation of ERK, MKN1
value type: IC50 (nM)

Example results:
compound	IC50 / nM
CCc1c(F)ccc2cc(O)cc(-c3ncc4c(N5CCC[C@]6(C5)NC(=O)NC6=O)nc(OCC5(CN6CCCC6)CC5)nc4c3F)c12	32
CCc1c(F)ccc2cc(O)cc(-c3ncc4c(N5CCOC[C@@]6(C5)CC6(F)F)nc(OC[C@@]56CCCN5C[C@H](F)C6)nc4c3F)c12	13
CCc1c(F)ccc2cc(O)cc(-c3ncc4c(N5CCCn6nc(C(=O)N(C)C)c(F)c6C5)nc(OC[C@@]56CCCN5C[C@H](F)C6)nc4c3F)c12	31

(I) CCc1c(F)ccc2cc(O)cc(-c3ncc4c(N5CC[C@H](C)[C@@H](O)C5)nc(OC[C@@]56CCCN5C[C@H](F)C6)nc4c3F)c12
(II) CCc1c(F)ccc2cc(O)cc(-c3ncc4c(N5CCCn6nc(C(=O)N(C)C)cc6C5)nc(OC[C@@]56CCCN5C[C@H](F)C6)nc4c3F)c12
(III) CN(C)CC1(COc2nc(N3CCCC4(CNS(=O)(=O)N4)C3)c3cnc(-c4cc(O)cc5ccc(F)c(Cl)c45)c(F)c3n2)CC1 (stereo not drawn)
## Input Order each entry by recorded IC50, climbing from the minimum. # respond with the labels, arranged in the requested order
## Output II, III, I

###

biological target: KRas WT (Homo sapiens);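 also: binding to KRas read as TR-FRET displacement after a one-hour room-temperature incubation, IC50 derived from percent-of-control values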
Sequence (P01116 1-169 isoform P01116-2): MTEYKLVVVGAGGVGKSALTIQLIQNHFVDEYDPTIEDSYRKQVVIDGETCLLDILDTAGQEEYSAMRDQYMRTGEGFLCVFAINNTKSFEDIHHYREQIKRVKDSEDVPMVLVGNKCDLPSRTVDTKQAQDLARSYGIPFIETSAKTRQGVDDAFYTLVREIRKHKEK
value type: IC50 (nM)

Example results:
compound	IC50 (nM)
CCc1c(F)ccc2cc(O)cc(-c3ncc4c(N5CCC[C@]6(C5)C[C@@](C)(O)C6)nc(OCC56CCCN5CCC6)nc4c3F)c12	1030
CS(=O)(=O)C1COCCN(c2nc(OCC34CCCN3CCC4)nc3c(F)c(-c4cccc5cccc(F)c45)ncc23)C1 (stereo not shown)	3000
C[C@H]1C[C@H]1c1c(Cl)cc2[nH]ncc2c1-c1ncc2c(N3CCC[C@@](C)(O)C3)nc(OC[C@@]34CCCN3C[C@H](F)C4)nc2c1F (racemic)	6
Fc1c(-c2cccc3cccc(F)c23)ncc2c(NCc3cn[nH]c3)nc(OCC34CCCN3CCC4)nc12	14900

(A) Cc1cc(-c2ncc3c(N4CCCC(C)(O)C4)nc(OCC45CCCN4CCC5)nc3c2F)c2cn[nH]c2c1 (stereo not shown)
(B) Cc1cc(N)nc(-c2ncc3c(N4CCC[C@@](C)(O)C4)nc(OC[C@@H]4CCCN4C)nc3c2F)c1C(F)(F)F
## Input // compare measured IC50, left A , right B , return larger Write the label of whichever entry you select.
## Output A
(A: 19700 nM, B: 4450 nM)

###

tested on: pERK in H460 cells; experiment: Inhibition of KRas phosphorylation of ERK (Cisbio HTRF pERK assay); conditions: Homo sapiens, NCI-H460, read-out: Inhibition (HTRF IC50) of KRas-mediated Phosphorylation of ERK, H460
value type: IC50 (µM)

Example results:
molecule	readout unit	quantitative result
CCc1c(F)ccc2cc(O)cc(-c3ncc4c(N5CCC[C@]6(C5)C[C@@H](O)C6)nc(OC[C@@]56CCCN5C[C@H](F)C6)nc4c3F)c12 (single isomer, unassigned)	µM	0.099
CCc1c(F)ccc2cc(O)cc(-c3ncc4c(N5CCCC6(CNS(=O)(=O)N6)C5)nc(OC[C@@]56CCCN5C[C@H](F)C6)nc4c3F)c12 (some centres unmarked)	µM	0.052
CCNC(=O)c1cc2n(n1)CCCN(c1nc(OC[C@@]34CCCN3C[C@H](F)C4)nc3c(F)c(-c4cc(O)cc5ccc(F)c(CC)c45)ncc13)C2	µM	0.458
CCc1c(F)ccc2cc(O)cc(-c3ncc4c(N5CCC[C@@](C)(O)C5)nc(OC[C@@]56CCCN5[C@H](COC(=O)N(C)C)CC6)nc4c3F)c12	µM	0.014
CCc1c(F)ccc2cc(O)cc(-c3ncc4c(N5CCCC6(CC(=O)NC6=O)C5)nc(OC[C@@]56CCCN5C[C@H](F)C6)nc4c3F)c12 (some centres unmarked)	µM	0.065

(1) C[C@@]1(O)CCCN(c2nc(OC[C@@]34CCCN3C[C@H](F)C4)nc3c(F)c(-c4cc(O)cc5ccc(F)c(Cl)c45)ncc23)C1
(2) CCc1c(F)ccc2cc(O)cc(-c3ncc4c(N5CCCn6nc(C(=O)N(C)C)c(F)c6C5)nc(OC[C@@]56CCCN5C[C@H](F)C6)nc4c3F)c12
## Input // compare measured IC50, left 1 , right 2 , return larger Write the label of whichever entry you select.
## Output 2
(2: 0.327 µM, 1: 0.052 µM)

(I) CCc1c(F)ccc2cc(O)cc(-c3ncc4c(N5CCCn6nc(C(=O)N(C)C)cc6C5)nc(OC[C@@]56CCCN5C[C@H](F)C6)nc4c3F)c12
(II) CCc1c(F)ccc2cc(O)cc(-c3ncc4c(N5CC6CC(O)C(C6)C5)nc(OC[C@@]56CCCN5C[C@H](F)C6)nc4c3F)c12 (some centres unmarked)
## Input Kindly identify the item with the lower IC50 figure among these two: I and II Write the label of whichever entry you select.
## Output II
(II: 0.022 µM, I: 0.253 µM)
